// data source = PubChem BioAssay AID1259407

- System: CCRIS mutagenicity, Ames/micronucleus/aberration tests
- Protocol details: CCRIS mutagenicity studies
- Particulars: Test System: AMES SALMONELLA TYPHIMURIUM; Strain/Indicator: TA1537; Metabolic Activation: NONE; Method: PREINCUBATION
- Description: The CCRIS database contains chemical records with carcinogenicity, mutagenicity, tumor promotion, and tumor inhibition test results. It was developed by the National Cancer Institute (NCI). Data are derived from studies cited in primary journals, current awareness tools, NCI reports, and other sources. Test results have been reviewed by experts in carcinogenesis and mutagenesis. CCRIS provides historical information from the years 1985 - 2011. It is no longer updated. […]
Active and inactive are the calls of the source. No rule for the calls is given here.
One label from this list, please: 1.0 for active, 0.0 for inactive

Record lookup: outcome of this test for `Brc1ccccc1` ?
0.0

Query: recorded result category for `CC(C)NC(C)C` in this test
0.0

Status in this test for CC(C)(C)c1ccc(OCC2CO2)cc1 (configuration not stated) ?
0.0

Recorded call for `Nc1c2ccccc2nc2ccc([N+](=O)[O-])cc12` ?
1.0

Check the results log: what was the call for `O=S(O)CO` ?
0.0

What classification did `C#C[C@]1(OC(=O)CCCCCC)CC[C@H]2[C@@H]3CCC4=CC(=O)CC[C@@H]4[C@H]3CC[C@@]21C` end up with in this test?
0.0

Record request — test call for `Cc1ccc(NC(N)=O)cc1`
0.0

Hi, do you know how `COC[CH2][Hg][Cl]` came out in this test?
0.0

Hi team, can someone confirm the assay call for `c1cnc2c(c1)ccc1cccnc12` ?
0.0

Outcome logged for `NCC(=O)O` in this assay:
0.0

GET /call?item= CC(=O)C(N=Nc1ccc(-c2ccc(N=NC(C(C)=O)C(=O)Nc3ccccc3)c(Cl)c2)cc1Cl)C(=O)Nc1ccccc1 (configuration not stated) returns the recorded outcome of this test.
0.0

Recorded call for `CC(C)CCCCCOC(=O)C[S][Sn]([CH3])([S]CC(=O)OCCCCCC(C)C)[S]CC(=O)OCCCCCC(C)C` ?
0.0

What did the test return for `ClC(Cl)Br` ?
0.0

Dear all, I need the recorded test outcome for `Cc1c(C)c2c(N)c3ccccc3nc2c2ccccc12` , thank you.
0.0

Short answer needed: outcome of this test for `O=CCC=O` ?
0.0

Assay result, entry `CC(C)(c1cc(Br)c(O)c(Br)c1)c1cc(Br)c(O)c(Br)c1` — outcome?
0.0

// outcome(item) with item = `C=C(C)C(=O)O`
0.0

* * *

- Test system: CCRIS mutagenicity, Ames/micronucleus/aberration tests
- Protocol details: CCRIS mutagenicity studies
- Particulars: Test System: AMES SALMONELLA TYPHIMURIUM; Strain/Indicator: TA102; Metabolic Activation: NONE; Method: PREINCUBATION
Activity calls are given as the source filed them. How the calls were made is not given here.
The reply should name one outcome from TRUE (active), FALSE (inactive)

Returns: the outcome recorded for `O=[N+]([O-])c1cc2c3ccccc3ccc2c2ccccc12` in this assay.
FALSE

Recorded test outcome, item `O=O`
TRUE

Just curious, what result did `CCNNCC` get here?
FALSE

Outcome logged for `O=C[C@H](O)[C@@H](O)[C@H](O)CO` in this assay:
FALSE

Which outcome did this test record for the compound `CCCCCCCCO` ?
FALSE
